tested on: Morganella morg.; assay: MIC on Iso-Sensitest agar, serial dilution; assay type: cell-based; settings: Morganella morg. strain 932; 37° C., approx. 20 hours; read-out: MIC
So I've got a bunch of compounds here, and I need their MIC values.
Numbers only, in µg/mL.

[[record]]
compound = "O=C(O)c1cn(C2CC2)c2nc(N3Cc4ccncc4C3)c(F)cc2c1=O [Example 6]"
readout_kind = "MIC"
reported = 0.25

[[record]]
compound = "CN1CCC2=C(C1)CN(c1c(F)cc3c(=O)c(C(=O)O)cn(C4CC4)c3c1F)C2.Cl [Example 7B]"
readout_kind = "MIC"
reported = 0.03

[[record]]
compound = "CN1CCC2=C(C1)CN(c1c(F)cc3c(=O)c(C(=O)O)cn(C4CC4)c3c1Cl)C2 [Example 8]"
readout_kind = "MIC"
reported = 0.06

[[record]]
compound = "O=C(O)c1cn(C2CC2)c2cc(N3Cc4cccnc4C3)c(F)cc2c1=O [Example 5]"
readout_kind = "MIC"
reported = 0.13


In plain terms, O=C(O)c1cn(C2CC2)c2cc(N3Cc4ccncc4C3)c(F)cc2c1=O [Example 4] has a documented MIC of 0.5

The measured values listed here are drawn from patent US5371090A.
